assay_system: cGAS (Homo sapiens)
Sequence (Q8N884 whole entry): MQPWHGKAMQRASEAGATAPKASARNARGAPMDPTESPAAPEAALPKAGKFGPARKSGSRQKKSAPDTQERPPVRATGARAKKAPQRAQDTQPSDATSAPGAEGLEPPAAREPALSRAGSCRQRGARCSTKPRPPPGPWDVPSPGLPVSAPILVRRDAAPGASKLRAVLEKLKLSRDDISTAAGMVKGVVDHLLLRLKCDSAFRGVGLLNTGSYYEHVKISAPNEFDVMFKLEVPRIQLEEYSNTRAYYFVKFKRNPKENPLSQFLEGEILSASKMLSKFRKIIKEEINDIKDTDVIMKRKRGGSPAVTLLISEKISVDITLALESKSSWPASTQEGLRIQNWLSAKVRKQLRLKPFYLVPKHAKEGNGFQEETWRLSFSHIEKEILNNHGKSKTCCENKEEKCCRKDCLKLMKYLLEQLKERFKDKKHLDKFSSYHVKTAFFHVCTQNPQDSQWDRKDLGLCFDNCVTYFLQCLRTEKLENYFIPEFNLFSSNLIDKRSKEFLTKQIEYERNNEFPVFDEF
test_summary: ISD70-driven IP-10 (and IFN-β) production in THP-1 cells, ELISA
Format: cell-based
Parameters: endogenous in cells; host or cells: THP-1 (undifferentiated)
experimental_context: MOE-modified ASO at 100 nM; averaged IP-10 levels relative to ISD70 condition
Assign 1.0 whenever cGAS 100 nM does not fall below 0.4; assign 0.0 whenever it does.

Consider the worked cases shown below.
| residue_codes | class_label |
| --- | --- |
| AACACTTCGTGGGGTCCTTT (antisense; 2'-MOE modified, pattern not given here) [HPRT-664 MOE] | 1.0 |
| GCCCATCCATGAGGTCCTGG (antisense; 2'-MOE modified, pattern not given here) [CTNN2B-2545 MOE] | 1.0 |
| TCAAAGGACTGAGGAAAGGG (antisense; 2'-MOE modified, pattern not given here) [CAMSAP1-6273 MOE] | 1.0 |
| GGGAAAGGTTATGCAAGGTC (antisense; 2'-MOE modified, pattern not given here) [CTNN2B-916 MOE] | 0.0 |
| GCGTGTCTGGAAGCTTCCTT (antisense; 2'-MOE modified, pattern not given here) [CTNN2B-809 MOE] | 0.0 |
| GGTCCATACCCAAGGCATCC (antisense; 2'-MOE modified, pattern not given here) [CTNN2B-2446 MOE] | 1.0 |
| ATCCAACACTTCGTGGGGTC (antisense; 2'-MOE modified, pattern not given here) [HPRT-668 MOE] | 1.0 |
| ACAGTGTTGAGATACTCGGG (antisense; 2'-MOE modified, pattern not given here) [EGFR-3652 MOE] | 0.0 |
| TGTCCTTGCACGTGGCTTCG (antisense; 2'-MOE modified, pattern not given here) [EGFR-1014 MOE] | 1.0 |
| CGGAGGTCTTGGCTTCGTGG (antisense; 2'-MOE modified, pattern not given here) [MB21D1-525 MOE] | 0.0 |

Has TTTGCACACTTCGTACCCAA (antisense; 2'-MOE modified, pattern not given here) [CAMSAP1-4916 MOE] a recorded cGAS 100 nM greater than or equal to 0.4?
0.0

Now the same for TTCTGCAGCTTCCTTGTCCT (antisense; 2'-MOE modified, pattern not given here) [CTNN2B-2136 MOE]
1.0

Param item: CTGTGATCTTGACATGCTGC (antisense; 2'-MOE modified, pattern not given here) [EGFR-2790 MOE]
0.0

Let us now turn to GGAGCTTCGAGGCCCCAGGC (MOE modified, pattern not given here) [MB21D1-616 MOE]
0.0

Follow-up item: GATGGCCTCCCATCTCCTTC (antisense; 2'-MOE modified, pattern not given here) [HPRT-329 MOE]
1.0

----------
Please respond with reported TLR7-100 nM: averaged NF-κB-Luciferase relative to R848 for every item in the list.
assay_system: human TLR7 (Homo sapiens, UniProt Q9NYK1)
Construct: HA; host or cells: 293XL-hTLR7-HA (HEK293)
test_summary: HEK-TLR7 NF-κB-luciferase reporter, R848 stimulation
Type: cell-based
experimental_context: HEK-TLR7; 100 nM ASO; percentage of R848 without ASO (Alharbi et al., 2020)
In the oligonucleotide strings, read from the 5' end, every base follows the letter of its sugar. An asterisk marks phosphorothioate; unmarked linkages are phosphodiester. Other units and linkages are bracketed, terminal groups are in braces. A string of capitals states the bases alone. d = 2'-deoxy (DNA); m = 2'-O-methyl
Give bare numbers, in %.

For every record below, what is its TLR7-100 nM: averaged NF-κB-Luciferase relative to R848?
1. mU*mU*mA*mA*mA*T*A*A*T*C*T*A*G*T*T*mU*mG*mA*mA*mG (UUAAATAATCTAGTTUGAAG; sugars from the 5' end m5 d10 m5, all phosphorothioate, methylation of C not given here) [[CDKN2B-AS1]132]
2. mA*mA*mA*mG*mC*A*G*T*C*T*C*C*A*T*G*mU*mC*mC*mC*mA (mA*mA*mA*mG*mC*dA*dG*dT*dC*dT*dC*dC*dA*dT*dG*mU*mC*mC*mC*mA; antisense) [[CDKN2B-AS1]2237]
3. mG*mA*mU*mU*mA*A*A*A*C*A*G*A*T*T*A*mA*mU*mA*mC*mA (mG*mA*mU*mU*mA*dA*dA*dA*dC*dA*dG*dA*dT*dT*dA*mA*mU*mA*mC*mA) [[CDKN2B-AS1]1773]
4. mU*mC*mU*mC*mC*A*T*G*T*C*C*C*A*G*G*mC*mC*mU*mC*mC (mU*mC*mU*mC*mC*dA*dT*dG*dT*dC*dC*dC*dA*dG*dG*mC*mC*mU*mC*mC; antisense) [[CDKN2B-AS1]2230]

1. 25.66
2. 27.16
3. 21.92
4. 43.45

For the substance shown here, mC*mA*mU*mC*mC*C*T*T*C*T*G*C*T*G*C*mC*mA*mA*mG*mC (mC*mA*mU*mC*mC*dC*dT*dT*dC*dT*dG*dC*dT*dG*dC*mC*mA*mA*mG*mC; antisense) [[LINC-PINT]98] , give the reported TLR7-100 nM: averaged NF-κB-Luciferase relative to R848.
54.34

----------
What TLR9 500 nM was measured for each of the following?
assay_system: human TLR9 (Homo sapiens)
Construct: HA; host or cells: 293XL-hTLR9-HA (HEK293)
Sequence (Q9NR96 26-1032): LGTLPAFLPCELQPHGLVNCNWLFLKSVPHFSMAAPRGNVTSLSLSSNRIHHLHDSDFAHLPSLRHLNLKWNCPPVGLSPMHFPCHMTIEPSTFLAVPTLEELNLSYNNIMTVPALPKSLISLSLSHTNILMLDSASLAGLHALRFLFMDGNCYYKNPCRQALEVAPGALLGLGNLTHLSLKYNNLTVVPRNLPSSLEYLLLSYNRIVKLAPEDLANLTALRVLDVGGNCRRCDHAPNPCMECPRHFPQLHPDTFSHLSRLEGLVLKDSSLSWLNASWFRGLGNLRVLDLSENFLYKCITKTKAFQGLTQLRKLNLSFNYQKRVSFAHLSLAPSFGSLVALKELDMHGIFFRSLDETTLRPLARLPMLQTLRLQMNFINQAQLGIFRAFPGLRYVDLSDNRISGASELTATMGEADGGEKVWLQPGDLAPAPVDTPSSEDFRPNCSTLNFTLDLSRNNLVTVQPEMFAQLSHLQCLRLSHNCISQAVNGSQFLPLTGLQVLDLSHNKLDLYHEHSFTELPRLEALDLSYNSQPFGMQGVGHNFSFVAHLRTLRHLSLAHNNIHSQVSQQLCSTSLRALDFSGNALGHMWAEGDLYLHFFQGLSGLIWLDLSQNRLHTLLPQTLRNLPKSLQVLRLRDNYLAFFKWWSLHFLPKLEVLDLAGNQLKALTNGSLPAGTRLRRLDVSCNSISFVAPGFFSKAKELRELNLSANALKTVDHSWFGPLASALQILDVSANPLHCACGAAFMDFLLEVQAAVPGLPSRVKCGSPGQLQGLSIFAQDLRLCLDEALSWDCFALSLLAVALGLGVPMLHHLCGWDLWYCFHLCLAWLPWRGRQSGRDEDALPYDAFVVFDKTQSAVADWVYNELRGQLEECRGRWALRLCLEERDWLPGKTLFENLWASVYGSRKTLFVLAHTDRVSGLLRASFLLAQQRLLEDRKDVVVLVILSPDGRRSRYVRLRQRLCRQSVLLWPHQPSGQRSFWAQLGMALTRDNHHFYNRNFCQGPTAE
test_summary: HEK-TLR9 NF-κB-luciferase reporter, ODN2006 stimulation
Format: cell-based
experimental_context: MOE-modified ASO at 500 nM; averaged NF-κB-Luciferase relative to ODN2006 condition
One number for each entry.

Observe how each entry below is paired with its result.
| residue_codes | TLR9 500 nM |
| --- | --- |
| GGTGGTGGCCACCCATCTCA (antisense; 2'-MOE modified, pattern not given here) [CTNN2B-2479 MOE] | 0.317 |
| GGGAAAGGTTATGCAAGGTC (antisense; 2'-MOE modified, pattern not given here) [CTNN2B-916 MOE] | 0.505 |
| CAAGGCCCTTCGCACTTCTT (antisense; 2'-MOE modified, pattern not given here) [EGFR-1225 MOE] | 0.712 |
| TCCGGCCTCGGAAGCTCTCT (antisense; 2'-MOE modified, pattern not given here) [MB21D1-168 MOE] | 0.000 |
| CAGATAGCACCTTCAGCACT (antisense; 2'-MOE modified, pattern not given here) [CTNN2B-1294 MOE] | 0.484 |

Provide the reported TLR9 500 nM of each entry below, same order.
1. TTGCACACTTCGTACCCAAA (antisense; 2'-MOE modified, pattern not given here) [CAMSAP1-4915 MOE]
2. TGGCAGGCTCAGTGATGTCT (antisense; 2'-MOE modified, pattern not given here) [CTNN2B-1642 MOE]

[0.524, 0.479]

----------
assay_system: human TLR7 (Homo sapiens)
Construct: HA; host or cells: 293XL-hTLR7-HA (HEK293)
Sequence (Q9NYK1 27-1049): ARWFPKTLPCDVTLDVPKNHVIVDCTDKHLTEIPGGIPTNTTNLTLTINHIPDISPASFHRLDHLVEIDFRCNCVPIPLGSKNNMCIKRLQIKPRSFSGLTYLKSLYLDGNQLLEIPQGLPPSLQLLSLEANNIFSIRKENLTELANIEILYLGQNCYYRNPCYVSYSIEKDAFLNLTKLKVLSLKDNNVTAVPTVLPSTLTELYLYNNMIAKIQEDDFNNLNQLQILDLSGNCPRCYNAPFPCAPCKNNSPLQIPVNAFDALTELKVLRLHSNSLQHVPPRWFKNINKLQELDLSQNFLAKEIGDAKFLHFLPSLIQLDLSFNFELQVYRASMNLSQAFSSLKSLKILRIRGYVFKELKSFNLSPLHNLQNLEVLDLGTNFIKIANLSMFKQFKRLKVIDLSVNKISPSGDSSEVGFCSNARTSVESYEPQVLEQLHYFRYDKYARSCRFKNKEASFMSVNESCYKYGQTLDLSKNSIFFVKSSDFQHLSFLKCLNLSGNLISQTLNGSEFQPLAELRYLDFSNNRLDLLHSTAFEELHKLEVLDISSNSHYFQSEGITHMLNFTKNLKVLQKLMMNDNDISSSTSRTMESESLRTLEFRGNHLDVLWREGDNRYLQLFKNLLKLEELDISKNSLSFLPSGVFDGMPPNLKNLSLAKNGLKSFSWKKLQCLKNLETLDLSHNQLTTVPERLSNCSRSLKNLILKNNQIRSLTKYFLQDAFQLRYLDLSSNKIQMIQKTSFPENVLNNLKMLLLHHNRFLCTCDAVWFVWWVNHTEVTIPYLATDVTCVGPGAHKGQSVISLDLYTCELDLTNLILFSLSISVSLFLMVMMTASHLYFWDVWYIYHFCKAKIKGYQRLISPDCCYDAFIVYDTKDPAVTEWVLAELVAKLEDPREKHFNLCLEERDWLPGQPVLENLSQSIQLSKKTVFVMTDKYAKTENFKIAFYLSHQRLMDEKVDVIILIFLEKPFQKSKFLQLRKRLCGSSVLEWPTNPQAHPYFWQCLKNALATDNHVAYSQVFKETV
test_summary: HEK-TLR7 NF-κB-luciferase reporter, R848 stimulation
Format: cell-based
experimental_context: HEK-TLR7; 100 nM ASO; percentage of R848 without ASO (Alharbi et al., 2020)
In the oligonucleotide strings, read from the 5' end, every base follows the letter of its sugar. An asterisk marks phosphorothioate; unmarked linkages are phosphodiester. Other units and linkages are bracketed, terminal groups are in braces. A string of capitals states the bases alone. d = 2'-deoxy (DNA); m = 2'-O-methyl
measured_endpoint: TLR7-100 nM: averaged NF-κB-Luciferase relative to R848 (%)
One number for each entry, in %.

Give one value of TLR7-100 nM: averaged NF-κB-Luciferase relative to R848 per listed substance.
1. mC*mA*mC*mC*mC*T*T*C*T*C*T*C*T*G*G*mU*mC*mC*mC*mA (CACCCTTCTCTCTGGUCCCA; antisense; sugars from the 5' end m5 d10 m5, all phosphorothioate, methylation of C not given here) [[LINC-PINT]116]
2. mU*mA*mA*mA*mA*T*A*A*G*G*G*G*A*A*T*mA*mG*mG*mG*mG (mU*mA*mA*mA*mA*dT*dA*dA*dG*dG*dG*dG*dA*dA*dT*mA*mG*mG*mG*mG) [[CDKN2B-AS1]80]
3. mC*mC*mA*mU*mG*T*C*C*C*A*G*G*C*C*T*mC*mC*mA*mG*mU (CCAUGTCCCAGGCCTCCAGU; sugars from the 5' end m5 d10 m5, all phosphorothioate, methylation of C not given here) [[CDKN2B-AS1]2227]

1. 73.30
2. 40.95
3. 41.39

Would you kindly share the measured TLR7-100 nM: averaged NF-κB-Luciferase relative to R848 for mU*mC*mC*mC*mA*A*C*T*C*T*T*C*T*A*A*mC*mU*mC*mG*mU (mU*mC*mC*mC*mA*dA*dC*dT*dC*dT*dT*dC*dT*dA*dA*mC*mU*mC*mG*mU; antisense) [[LINC-PINT]1284 KL] ?
40.79
